Value source: ChEMBL document CHEMBL5385851

System: HUVEC
Test: Cytotoxicity against HUVEC cells assessed as reduction in cell viability incubated for 48 hrs by MTT assay
Type: functional, cell-based
Conditions: Homo sapiens
pIC50: −log10 of the molar value.
Result Type: pIC50

Smiles Structure | Recorded Number
O=c1c2ccccc2nc2n1CCc1c-2[nH]c2ccccc12 | 4.78

----------
Test system: MCF7
Assay: Cytotoxicity against human MCF7 cells assessed as reduction in cell viability measured after 48 hrs by MTT assay
Assay type: functional, cell-based
Conditions: MCF7, 48 h
Result Type: IC50 (µM)

Smiles Structure | Recorded Number
CC(=O)O[C@H](c1nc2ccccc2c(=O)n1[C@@H]1C[C@]2(OC1=O)c1ccccc1N1C(=O)C(C)(C)N(O)[C@H]12)C(C)C | 72

----------
System: MGC-803
Assay: Antiproliferative activity against human MGC-803 cells assessed as reduction in cell viability by MTT assay
Type: functional, cell-based

Smiles Structure | IC50
O=c1c2ccccc2nc2n1CC[C@@H]2O | 94.5 µM

----------
System: A-375
Assay: Cytotoxicity against human A-375 cells assessed as inhibition of cell growth by MTT based colorimetric analysis
Type: functional

Smiles Structure | IC50
CC(C)C[C@H]1NC(=O)[C@@H](C[C@]2(O)c3ccccc3N3C(=O)C(C)(C)N[C@H]32)n2c1nc1ccccc1c2=O | 75 µM

----------
In this section we review reported EC50 values for a set of compounds.
Tested on: P388
Assay: Cytotoxicity against mouse P388 cells assessed as reduction in cell growth
Format: functional
Conditions: read-out: ED50 (the source's name)
Result Type: EC50 (µg/mL)

Smiles Structure | Assay Target | Unit Abbrev | Recorded Number
C[C@@H]1N[C@H]2N(C1=O)c1ccccc1[C@@]2(O)C[C@@H]1C(=O)N[C@H](C)c2nc3ccccc3c(=O)n21 | P388 | µg/mL | 16
C[C@@H]1N[C@H]2N(C1=O)c1ccccc1[C@@]2(O)C[C@@H]1C(=O)N[C@@H](C)c2nc3ccccc3c(=O)n21 | P388 | µg/mL | 6.1
CO[C@@]1(C)NC(=O)[C@@H](C[C@]2(O)c3ccccc3N3C(=O)[C@H](C)N[C@@H]32)n2c1nc1ccccc1c2=O | P388 | µg/mL | 13.8
C[C@@H]1NC(=O)[C@@H](Cc2c[nH]c3ccccc23)n2c1nc1ccccc1c2=O | P388 | µg/mL | 14.6
C[C@H]1NC(=O)[C@@H](Cc2c[nH]c3ccccc23)n2c1nc1ccccc1c2=O | P388 | µg/mL | 17.7

----------
System: MGC-803
Experiment: Cytotoxicity against human MGC-803 assessed as inhibition of cell growth by MTT assay
Assay type: functional, cell-based
Result Type: IC50

Smiles Structure | Result
O=c1c2ccccc2nc2n1CC[C@@H]2O[C@@H]1O[C@H](CO)[C@@H](O)[C@H](O)[C@H]1O | 84.1 µM

----------
Biological target: Indoleamine 2,3-dioxygenase 1 (Homo sapiens)
Sequence (P14902 whole entry): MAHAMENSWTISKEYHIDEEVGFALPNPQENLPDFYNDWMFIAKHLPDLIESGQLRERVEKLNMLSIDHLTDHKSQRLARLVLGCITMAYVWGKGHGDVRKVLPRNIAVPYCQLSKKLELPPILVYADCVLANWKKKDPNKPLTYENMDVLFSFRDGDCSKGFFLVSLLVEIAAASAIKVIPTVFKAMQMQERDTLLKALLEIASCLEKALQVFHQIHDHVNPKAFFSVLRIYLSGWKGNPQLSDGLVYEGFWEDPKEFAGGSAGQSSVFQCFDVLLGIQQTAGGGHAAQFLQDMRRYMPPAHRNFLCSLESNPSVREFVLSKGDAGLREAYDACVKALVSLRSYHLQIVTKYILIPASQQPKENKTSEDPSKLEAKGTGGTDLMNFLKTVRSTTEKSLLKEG
Experiment: Inhibition of IDO1 in HEK293 cells
Format: cell-based
pIC50: −log10 of the molar value.
Result Type: pIC50

Compound | Recorded Number
O=C1c2ccccc2N[C@H]2[C@H](O)C3C=C(F)C=CC3N12 (stereo partly specified) | 7.61

----------
Test system: HL-60
Test: Cytotoxicity against human HL-60 cells assessed as reduction in cell growth incubated for 48 hrs by MTT assay
Format: functional, cell-based
Details: HL-60, 48 h

Smiles Structure | Assay Target | Unit Abbrev | IC50
CO[C@@H]1c2c([nH]c3ccccc23)-c2nc3ccccc3c(=O)n2[C@H]1O | HL-60 | µM | 7.82

----------
System: HCT-116
Assay: Antiproliferative activity against human HCT-116 cells assessed as reduction in cell growth incubated for 24 hrs by MTT assay
Type: functional, cell-based
Settings: HCT-116, 24 h

Compound | IC50 (µM)
C[C@@H]1N[C@@H]2N(C1=O)c1ccccc1[C@@]21C[C@@H](n2cnc3ccccc3c2=O)C(=O)O1 [FUMITREMORGIN F] | 202

----------
Tested on: A549
Experiment: Cytotoxicity against human A549 cells assessed as reduction in cell growth incubated for 5 days by MTT assay
Format: functional, cell-based
Conditions: A549, 120 h
Result Type: IC50

Smiles Structure | Result
CC(C)[C@H]1NC(=O)[C@@H](C[C@]2(O)c3ccccc3N3C(=O)[C@H](C)N[C@H]32)n2c1nc1ccccc1c2=O | > 100 µM

----------
Tested on: KB
Assay: Cytotoxicity against human KB cells assessed as cell growth inhibition
Type: functional, cell-based
Result Type: IC50 (µM)

Smiles Structure | Result Type | Unit Abbrev | Recorded Number
C=CC(C)(C)[C@@]12C[C@@]3(O)c4nc5ccccc5c(=O)n4[C@H](C)C(=O)N3[C@@H]1N(C(C)=O)c1ccccc12 | IC50 | µM | 61.4
C=CC(C)(C)[C@@]12C[C@H]3c4nc5ccccc5c(=O)n4[C@H](C)C(=O)N3[C@@H]1N(C(C)=O)c1ccccc12 | IC50 | µM | 107

----------
Tested on: HepG2
Experiment: Cytotoxicity against human HepG2 cells assessed as inhibition of cell growth by MTT based colorimetric analysis
Assay type: functional
pIC50: −log10 of the molar value.

Smiles Structure | pIC50
CC(C)C[C@H]1NC(=O)[C@@H](C[C@]2(O)c3ccccc3N3C(=O)C(C)(C)N[C@H]32)n2c1nc1ccccc1c2=O | 4.62
